# reported inhibition at 1 µM; entries follow
- subjectOfTest: muscarinic M3 receptor (Homo sapiens, UniProt P20309)
- Construct: expressed in transfected cells; host or cells: CHO cells
- Sequence (P20309 whole entry): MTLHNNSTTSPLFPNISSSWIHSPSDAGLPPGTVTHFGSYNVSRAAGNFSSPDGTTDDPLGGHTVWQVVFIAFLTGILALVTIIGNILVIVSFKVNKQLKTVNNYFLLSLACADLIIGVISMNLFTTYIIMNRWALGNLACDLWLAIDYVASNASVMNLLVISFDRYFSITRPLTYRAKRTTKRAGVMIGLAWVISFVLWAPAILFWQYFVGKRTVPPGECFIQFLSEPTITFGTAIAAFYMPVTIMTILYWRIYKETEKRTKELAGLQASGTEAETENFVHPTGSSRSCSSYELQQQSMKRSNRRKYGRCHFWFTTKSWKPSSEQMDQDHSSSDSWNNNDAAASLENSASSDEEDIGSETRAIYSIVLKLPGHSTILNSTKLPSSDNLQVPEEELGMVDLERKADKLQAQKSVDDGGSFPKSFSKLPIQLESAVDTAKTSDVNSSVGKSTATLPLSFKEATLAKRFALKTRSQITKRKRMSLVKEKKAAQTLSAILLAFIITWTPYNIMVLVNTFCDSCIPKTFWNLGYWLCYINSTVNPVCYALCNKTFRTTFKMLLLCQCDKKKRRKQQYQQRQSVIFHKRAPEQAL
- assayComment: Binding assay M3 (h), [3H]4-DAMP, CHO cells
- conditionContext: read-out: M3 [%]
measurementType: inhibition at 1 µM (%)

- compound: "O=c1[nH]c2ccc(S(=O)(=O)NCCCN3CCN(c4nsc5ccccc45)CC3)cc2o1 [Compound 8]"
  measurementType: "inhibition at 1 µM"
  endpointResult: -11
- compound: "O=c1[nH]c2cccc(N3CCN(CCCNS(=O)(=O)c4ccc5ccccc5c4)CC3)c2[nH]1 [Compound 424]"
  measurementType: "inhibition at 1 µM"
  endpointResult: 7
- compound: "O=S(=O)(NCCCCN1CCN(c2cccc3[nH]ccc23)CC1)c1cccc(F)c1 [Compound 28]"
  measurementType: "inhibition at 1 µM"
  endpointResult: 50
- compound: "O=c1[nH]c2cccc(N3CCN(CCCNS(=O)(=O)c4cccc5ccccc45)CC3)c2[nH]1 [Compound 423]"
  measurementType: "inhibition at 1 µM"
  endpointResult: -1
- compound: "O=S(=O)(NCCCN1CCC(c2noc3cc(F)ccc23)CC1)c1cc2cccnc2[nH]1 [Compound 357]"
  measurementType: "inhibition at 1 µM"
  endpointResult: 25
- compound: "O=S(=O)(NCCCCN1CCN(c2nsc3ccccc23)CC1)c1ccc(F)c(Cl)c1 [Compound 63]"
  measurementType: "inhibition at 1 µM"
  endpointResult: 11
- compound: "O=S(=O)(NCCCN1CCN(c2nsc3ccccc23)CC1)c1cccc2ccccc12 [Compound 5]"
  measurementType: "inhibition at 1 µM"
  endpointResult: 7
- compound: "O=S(=O)(NCCCCN1CCN(c2noc3ccccc23)CC1)c1cc2ccc(Cl)cc2s1 [Compound 288]"
  measurementType: "inhibition at 1 µM"
  endpointResult: 3
- compound: "O=S(=O)(NCCCCN1CCN(c2cccc3[nH]ccc23)CC1)c1ccc(F)cc1 [Compound 359]"
  measurementType: "inhibition at 1 µM"
  endpointResult: 63
- compound: "O=S(=O)(NCCCCN1CCC(c2noc3cc(F)ccc23)CC1)c1ccc(Br)cc1 [Compound 298]"
  measurementType: "inhibition at 1 µM"
  endpointResult: 19
- compound: "O=S(=O)(NCCCCN1CCN(c2noc3ccccc23)CC1)c1ccc2cc(Cl)ccc2c1 [Compound 79]"
  measurementType: "inhibition at 1 µM"
  endpointResult: 12
- compound: "O=S(=O)(NCCCCN1CCN(c2noc3ccccc23)CC1)c1ccc2ccccc2c1 [Compound 14]"
  measurementType: "inhibition at 1 µM"
  endpointResult: -6
- compound: "O=S(=O)(NCCCCN1CCN(c2nsc3ccccc23)CC1)c1cc2ccc(Cl)cc2s1 [Compound 241]"
  measurementType: "inhibition at 1 µM"
  endpointResult: 4
- compound: "O=S(=O)(NCCCCN1CCC(c2noc3cc(F)ccc23)CC1)c1ccc(Cl)s1 [Compound 308]"
  measurementType: "inhibition at 1 µM"
  endpointResult: 30
- compound: "Cc1[nH]c2ccc(Cl)cc2c1C1=CCN(CCCNS(=O)(=O)c2cccc(O)c2)CC1 [Compound 445]"
  measurementType: "inhibition at 1 µM"
  endpointResult: 27
- compound: "O=S(=O)(NCCCN1CCN(c2nsc3ccccc23)CC1)c1ccc2ccccc2c1 [Compound 6]"
  measurementType: "inhibition at 1 µM"
  endpointResult: -1
- compound: "O=S(=O)(NCCCN1CCN(c2nsc3ccccc23)CC1)c1cccc(Br)c1 [Compound 253]"
  measurementType: "inhibition at 1 µM"
  endpointResult: 24
- compound: "O=S(=O)(NCCCN1CCC(c2noc3cc(F)ccc23)CC1)c1ccc(F)c(Cl)c1 [Compound 331]"
  measurementType: "inhibition at 1 µM"
  endpointResult: 10
- compound: "Cc1c(S(=O)(=O)NCCCN2CCC(c3noc4cc(F)ccc34)CC2)sc2ccc(F)cc12 [Compound 102]"
  measurementType: "inhibition at 1 µM"
  endpointResult: 18
- compound: "O=S(=O)(NCCN1CC=C(c2c[nH]c3ccc(F)cc23)CC1)c1cccc(F)c1 [Compound 439]"
  measurementType: "inhibition at 1 µM"
  endpointResult: 16
- compound: "Cc1c(S(=O)(=O)NCCCCN2CCN(c3nsc4ccccc34)CC2)sc2ccc(F)cc12 [Compound 65]"
  measurementType: "inhibition at 1 µM"
  endpointResult: 8
- compound: "O=S(=O)(NCCN1CCC(c2noc3cc(F)ccc23)CC1)c1cccc2ccccc12 [Compound 23]"
  measurementType: "inhibition at 1 µM"
  endpointResult: -2

Provenance of the data: patent US8822517B2
